Hello, the source for this data is patent US20210130411A1, in case you need it.

methodSummary: Plasma pharmacokinetics after single oral administration
Assay type: in vivo, male Swiss Albino mice
statedConditions: male, Swiss Albino, mouse, plasma; PO 50 mg/kg, 12 hrs after administration; read-out: plasma concentration at 12 hrs
Where a SMILES comes first, the peptide text is derived from it. [ ]: non-standard residue; d: D form. The star is where a group is joined. Trt = c1ccc(C(c2ccccc2)(c2ccccc2)*)cc1; Sar = CNCC(=O)O; tBu = CC(C)(C)*
experimentalEndpoint: level at time molar at 12 h (nM)
The reply should contain only the number, in nM.

Looking up C[C@@H](OC(C)(C)C)[C@@H]1NC(=O)CN(C)C(=O)[C@H](CSC(c2ccccc2)(c2ccccc2)c2ccccc2)NC(=O)CNC(=O)[C@H](CSC(c2ccccc2)(c2ccccc2)c2ccccc2)NC(=O)CN(C)C1=O [CF88] (cyclo(C(Trt)GC(Trt)[Sar]T(tBu)[Sar])) , I see its level at time molar at 12 h listed as 10
